Source listed as patent US8637510B2.

SYSTEM: human alpha 7-wt nAChR (Homo sapiens)
Construct: expressed in transfected cells
Sequence (P36544 23-502): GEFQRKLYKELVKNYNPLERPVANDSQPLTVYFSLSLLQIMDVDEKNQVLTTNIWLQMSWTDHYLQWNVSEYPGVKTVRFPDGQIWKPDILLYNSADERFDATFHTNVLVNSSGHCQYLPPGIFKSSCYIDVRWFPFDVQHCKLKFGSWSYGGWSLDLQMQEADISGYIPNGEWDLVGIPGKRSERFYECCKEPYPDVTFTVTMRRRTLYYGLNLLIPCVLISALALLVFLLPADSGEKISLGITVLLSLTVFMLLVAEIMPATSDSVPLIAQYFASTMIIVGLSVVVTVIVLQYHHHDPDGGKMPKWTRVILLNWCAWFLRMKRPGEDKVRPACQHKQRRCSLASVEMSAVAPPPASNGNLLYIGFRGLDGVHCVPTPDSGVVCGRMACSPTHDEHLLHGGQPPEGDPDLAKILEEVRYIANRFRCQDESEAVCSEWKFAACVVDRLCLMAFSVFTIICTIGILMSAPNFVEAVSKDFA
PROTOCOL DETAILS: Ca2+ flux imaging (FDSS) (Protocol B)
Format: cell-based
CONDITION LABEL: efficacy of 100 μM choline defined as 100% in the absence of a PAM; read-out: a7-PAM-G_[33]_Eff_Curve_FI % Efficacy
READOUT: Emax (%)

>>> recorded_value("Cc1cc(-c2sc(N3C[C@@H](C)O[C@@H](C)C3)nc2CNC(=O)c2cccc(C(F)(F)F)c2)cc(C)n1")
607
>>> recorded_value("Cc1cc(-c2sc(N3CCOC(C)C3)nc2CNC(=O)c2conc2C)cc(C)n1 (single isomer, unassigned)")
645
>>> recorded_value("Cc1cc(-c2sc(N3CCOC[C@@H]3C)nc2CNC(=O)C(C)C)cc(C)n1")
685
>>> recorded_value("Cc1cc(-c2sc(N3C[C@@H](C)O[C@@H](C)C3)nc2CNC(=O)c2ccc(Cl)c(Cl)c2)cc(C)n1")
599
>>> recorded_value("Cc1ccc(-c2sc(N3C[C@@H](C)O[C@@H](C)C3)nc2CNC(=O)c2ccccc2Cl)cn1")
356
>>> recorded_value("CCC(=O)NCc1nc(N2C[C@@H](C)O[C@@H](C)C2)sc1-c1cc(C)nc(C)c1")
498
>>> recorded_value("Cc1cc(-c2sc(N3C[C@@H](C)O[C@@H](C)C3)nc2CNC(=O)c2cccnc2C)cc(C)n1")
499
